// reported inhibition at 100 µM for each item listed
- assayed_system: α-Galactosidase (Coffea arabica, UniProt Q42656)
- Construct: purchased Sigma-Aldrich Chemical Co
- Sequence (Q42656 16-378): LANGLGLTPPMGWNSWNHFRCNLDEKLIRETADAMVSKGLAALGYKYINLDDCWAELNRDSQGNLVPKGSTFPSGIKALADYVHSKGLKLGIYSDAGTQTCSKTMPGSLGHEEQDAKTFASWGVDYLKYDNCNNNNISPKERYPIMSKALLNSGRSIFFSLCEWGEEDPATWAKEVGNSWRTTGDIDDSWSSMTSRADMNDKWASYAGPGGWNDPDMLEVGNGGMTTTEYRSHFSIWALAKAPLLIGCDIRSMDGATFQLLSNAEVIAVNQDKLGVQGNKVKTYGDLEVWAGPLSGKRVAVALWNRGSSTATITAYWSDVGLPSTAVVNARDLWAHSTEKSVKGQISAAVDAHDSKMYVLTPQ
- protocol_details: glycosidase inhibition assay, coffee beans α-galactosidase
- Format: biochemical

molecule: OCCC[C@H](O)CCCCCCCCC[C@H]1N[C@H](CO)[C@@H](O)[C@@H]1O [10’-epi-3]
inhibition at 100 µM [%]: 0

molecule: OCCC[C@@H](O)CCCCCCCCC[C@H]1N[C@@H](CO)[C@@H](O)[C@@H]1O [2-epi-3]
inhibition at 100 µM [%]: 0

molecule: OCCCC(O)CCCCCCCCCC1NC(CO)C(O)C1O (stereo not drawn) [2,10-di-epi-3]
inhibition at 100 µM [%]: 0

molecule: OCCC[C@@H](O)CCCCCCCCC[C@H]1N[C@H](CO)[C@@H](O)[C@@H]1O
inhibition at 100 µM [%]: 0

molecule: OCCC[C@H](O)CCCCCCCCC[C@@H]1N[C@@H](CO)[C@@H](O)[C@H]1O [ent-3-epi-3]
inhibition at 100 µM [%]: 0

molecule: OCCC[C@@H](O)CCCCCCCCC[C@@H]1N[C@@H](CO)[C@H](O)[C@H]1O [ent-10’-epi-3]
inhibition at 100 µM [%]: 12.2

molecule: OCCC[C@H](O)CCCCCCCCC[C@@H]1N[C@@H](CO)[C@H](O)[C@H]1O
inhibition at 100 µM [%]: 0.3

molecule: OCCC[C@@H](O)CCCCCCCCC[C@@H]1N[C@@H](CO)[C@@H](O)[C@H]1O [ent-3,10-di-epi-3]
inhibition at 100 µM [%]: 0

---

The reader will find reported inhibition at 100 µM values listed item by item below.
- assayed_system: α,α-Trehalase (Sus scrofa, UniProt I3LIR5)
- Sequence (I3LIR5 24-556): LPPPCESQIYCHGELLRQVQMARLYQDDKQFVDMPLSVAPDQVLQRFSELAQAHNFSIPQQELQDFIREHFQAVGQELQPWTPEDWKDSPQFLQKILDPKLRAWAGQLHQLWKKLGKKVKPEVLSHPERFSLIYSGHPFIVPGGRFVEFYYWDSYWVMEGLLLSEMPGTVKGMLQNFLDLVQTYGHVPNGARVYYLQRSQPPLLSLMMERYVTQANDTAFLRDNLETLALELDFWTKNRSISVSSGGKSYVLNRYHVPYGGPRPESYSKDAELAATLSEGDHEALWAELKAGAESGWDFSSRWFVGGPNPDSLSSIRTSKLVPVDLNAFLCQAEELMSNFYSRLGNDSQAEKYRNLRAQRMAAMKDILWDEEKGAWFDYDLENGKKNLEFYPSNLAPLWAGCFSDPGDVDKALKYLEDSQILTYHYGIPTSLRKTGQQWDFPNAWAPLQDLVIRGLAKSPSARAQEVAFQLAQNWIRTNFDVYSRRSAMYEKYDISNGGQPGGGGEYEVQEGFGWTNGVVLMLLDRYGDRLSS
- protocol_details: glycosidase inhibition assay, porcine kidney α,α-trehalase
- Format: biochemical
- Method: With rat intestinal maltase as an exception, other enzymes were purchased from Sigma-Aldrich Chemical Co. (St. Louis, Mo. USA). […] The released D-glucose was determined colorimetrically using the Glucose CII-test Wako (Wako Pure Chemical Ind.; Osaka, Japan). Other glycosidase activities were determined using an appropriate p-nitrophenyl glycoside as substrate in a buffer solution at the optimal pH value of each enzyme. […] The released p-nitrophenol was measured spectrometrically at 400 nm.

molecule: OCCC[C@@H](O)CCCCCCCCC[C@H]1N[C@@H](CO)[C@@H](O)[C@@H]1O [2-epi-3]
inhibition at 100 µM, %: 0

molecule: OCCC[C@H](O)CCCCCCCCC[C@@H]1N[C@@H](CO)[C@@H](O)[C@H]1O [ent-3-epi-3]
inhibition at 100 µM, %: 0

molecule: OCCC[C@@H](O)CCCCCCCCC[C@@H]1N[C@@H](CO)[C@@H](O)[C@H]1O [ent-3,10-di-epi-3]
inhibition at 100 µM, %: 3.8

molecule: OCCC[C@@H](O)CCCCCCCCC[C@H]1N[C@H](CO)[C@@H](O)[C@@H]1O
inhibition at 100 µM, %: 0

molecule: OCCC[C@H](O)CCCCCCCCC[C@H]1N[C@H](CO)[C@@H](O)[C@@H]1O [10’-epi-3]
inhibition at 100 µM, %: 0

molecule: OCCC[C@H](O)CCCCCCCCC[C@@H]1N[C@@H](CO)[C@H](O)[C@H]1O
inhibition at 100 µM, %: 2.1

molecule: OCCC[C@@H](O)CCCCCCCCC[C@@H]1N[C@@H](CO)[C@H](O)[C@H]1O [ent-10’-epi-3]
inhibition at 100 µM, %: 0

molecule: OCCCC(O)CCCCCCCCCC1NC(CO)C(O)C1O (stereo not drawn) [2,10-di-epi-3]
inhibition at 100 µM, %: 0

---

- assayed_system: Amyloglucosidase (Aspergillus niger)
- Construct: purchased Sigma-Aldrich Chemical Co
- Sequence (P69328 25-640): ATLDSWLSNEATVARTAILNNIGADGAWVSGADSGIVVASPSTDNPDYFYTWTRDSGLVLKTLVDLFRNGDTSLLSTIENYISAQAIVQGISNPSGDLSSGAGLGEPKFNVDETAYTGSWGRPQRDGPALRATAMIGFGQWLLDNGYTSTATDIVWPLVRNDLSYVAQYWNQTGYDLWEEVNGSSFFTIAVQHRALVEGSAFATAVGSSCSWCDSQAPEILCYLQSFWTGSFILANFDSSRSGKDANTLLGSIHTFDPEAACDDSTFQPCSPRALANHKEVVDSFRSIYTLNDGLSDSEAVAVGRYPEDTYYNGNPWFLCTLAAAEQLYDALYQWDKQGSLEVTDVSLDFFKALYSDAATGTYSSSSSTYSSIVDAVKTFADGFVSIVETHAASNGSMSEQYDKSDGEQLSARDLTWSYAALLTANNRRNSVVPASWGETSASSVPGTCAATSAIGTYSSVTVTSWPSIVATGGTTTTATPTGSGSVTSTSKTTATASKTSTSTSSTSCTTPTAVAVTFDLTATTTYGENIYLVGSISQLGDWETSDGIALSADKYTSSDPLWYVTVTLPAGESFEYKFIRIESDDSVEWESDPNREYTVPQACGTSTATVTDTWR
- protocol_details: glycosidase inhibition assay, A. niger amyloglucosidase
- Type: biochemical
pIC50: −log10 of the molar value.
metric_name: pIC50

compound: OCCC[C@H](O)CCCCCCCCC[C@@H]1N[C@@H](CO)[C@H](O)[C@H]1O
recorded_measurement: < 4.00

compound: OCCC[C@@H](O)CCCCCCCCC[C@@H]1N[C@@H](CO)[C@H](O)[C@H]1O [ent-10’-epi-3]
recorded_measurement: < 4.00

compound: OCCC[C@@H](O)CCCCCCCCC[C@@H]1N[C@@H](CO)[C@@H](O)[C@H]1O [ent-3,10-di-epi-3]
recorded_measurement: < 4.00

compound: OCCC[C@H](O)CCCCCCCCC[C@H]1N[C@H](CO)[C@@H](O)[C@@H]1O [10’-epi-3]
recorded_measurement: < 4.00

compound: OCCCC(O)CCCCCCCCCC1NC(CO)C(O)C1O (stereo not drawn) [2,10-di-epi-3]
recorded_measurement: < 4.00

compound: OCCC[C@H](O)CCCCCCCCC[C@@H]1N[C@@H](CO)[C@@H](O)[C@H]1O [ent-3-epi-3]
recorded_measurement: < 4.00

compound: OCCC[C@@H](O)CCCCCCCCC[C@H]1N[C@@H](CO)[C@@H](O)[C@@H]1O [2-epi-3]
recorded_measurement: < 4.00

compound: OCCC[C@@H](O)CCCCCCCCC[C@H]1N[C@H](CO)[C@@H](O)[C@@H]1O
recorded_measurement: < 4.00

---

- assayed_system: α-Glucosidase (Oryza sativa subsp. japonica)
- Construct: purchased Sigma-Aldrich Chemical Co
- Sequence (Q653V7 34-885): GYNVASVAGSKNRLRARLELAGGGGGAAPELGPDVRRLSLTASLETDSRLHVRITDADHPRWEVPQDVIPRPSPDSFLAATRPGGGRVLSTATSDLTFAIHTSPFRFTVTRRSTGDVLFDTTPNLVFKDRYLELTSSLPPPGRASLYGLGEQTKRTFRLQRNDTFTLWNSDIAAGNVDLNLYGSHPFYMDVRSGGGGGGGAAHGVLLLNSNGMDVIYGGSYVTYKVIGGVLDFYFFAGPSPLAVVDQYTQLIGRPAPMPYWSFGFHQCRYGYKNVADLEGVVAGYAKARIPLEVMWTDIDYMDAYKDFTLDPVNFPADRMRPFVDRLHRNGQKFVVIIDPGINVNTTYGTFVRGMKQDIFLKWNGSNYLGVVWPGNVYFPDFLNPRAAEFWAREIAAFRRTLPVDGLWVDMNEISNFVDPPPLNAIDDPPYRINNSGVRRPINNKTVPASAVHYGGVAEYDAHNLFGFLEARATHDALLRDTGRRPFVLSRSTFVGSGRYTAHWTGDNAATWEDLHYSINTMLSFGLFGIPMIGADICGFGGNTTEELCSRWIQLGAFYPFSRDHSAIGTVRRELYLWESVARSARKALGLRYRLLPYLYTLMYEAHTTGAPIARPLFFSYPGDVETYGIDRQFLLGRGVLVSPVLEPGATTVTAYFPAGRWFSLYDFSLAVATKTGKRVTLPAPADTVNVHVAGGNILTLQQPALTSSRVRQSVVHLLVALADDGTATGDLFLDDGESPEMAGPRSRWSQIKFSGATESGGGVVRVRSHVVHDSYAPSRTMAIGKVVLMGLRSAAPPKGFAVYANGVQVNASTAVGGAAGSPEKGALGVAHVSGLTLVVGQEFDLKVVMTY
- protocol_details: glycosidase inhibition assay, rice α-glucosidase
- Type: biochemical
pIC50: −log10 of the molar value.

compound: OCCC[C@@H](O)CCCCCCCCC[C@@H]1N[C@@H](CO)[C@@H](O)[C@H]1O [ent-3,10-di-epi-3]
assayed_system: α-Glucosidase (Oryza sativa subsp. japonica)
pIC50: < 4.00
//
compound: OCCC[C@@H](O)CCCCCCCCC[C@H]1N[C@H](CO)[C@@H](O)[C@@H]1O
assayed_system: α-Glucosidase (Oryza sativa subsp. japonica)
pIC50: < 4.00
//
compound: OCCC[C@H](O)CCCCCCCCC[C@H]1N[C@H](CO)[C@@H](O)[C@@H]1O [10’-epi-3]
assayed_system: α-Glucosidase (Oryza sativa subsp. japonica)
pIC50: < 4.00
//
compound: OCCCC(O)CCCCCCCCCC1NC(CO)C(O)C1O (stereo not drawn) [2,10-di-epi-3]
assayed_system: α-Glucosidase (Oryza sativa subsp. japonica)
pIC50: 4.92
//
compound: OCCC[C@@H](O)CCCCCCCCC[C@H]1N[C@@H](CO)[C@@H](O)[C@@H]1O [2-epi-3]
assayed_system: α-Glucosidase (Oryza sativa subsp. japonica)
pIC50: < 4.00
//
compound: OCCC[C@H](O)CCCCCCCCC[C@@H]1N[C@@H](CO)[C@@H](O)[C@H]1O [ent-3-epi-3]
assayed_system: α-Glucosidase (Oryza sativa subsp. japonica)
pIC50: < 4.00
//
compound: OCCC[C@H](O)CCCCCCCCC[C@@H]1N[C@@H](CO)[C@H](O)[C@H]1O
assayed_system: α-Glucosidase (Oryza sativa subsp. japonica)
pIC50: 5.92
//
compound: OCCC[C@@H](O)CCCCCCCCC[C@@H]1N[C@@H](CO)[C@H](O)[C@H]1O [ent-10’-epi-3]
assayed_system: α-Glucosidase (Oryza sativa subsp. japonica)
pIC50: 5.89

---

inhibition at 100 µM listing for selected compounds.
- assayed_system: α-L-Fucosidase (Bos taurus, UniProt Q2KIM0)
- Construct: purchased Sigma-Aldrich Chemical Co; host or cells: bovine kidney
- Sequence (Q2KIM0 23-468): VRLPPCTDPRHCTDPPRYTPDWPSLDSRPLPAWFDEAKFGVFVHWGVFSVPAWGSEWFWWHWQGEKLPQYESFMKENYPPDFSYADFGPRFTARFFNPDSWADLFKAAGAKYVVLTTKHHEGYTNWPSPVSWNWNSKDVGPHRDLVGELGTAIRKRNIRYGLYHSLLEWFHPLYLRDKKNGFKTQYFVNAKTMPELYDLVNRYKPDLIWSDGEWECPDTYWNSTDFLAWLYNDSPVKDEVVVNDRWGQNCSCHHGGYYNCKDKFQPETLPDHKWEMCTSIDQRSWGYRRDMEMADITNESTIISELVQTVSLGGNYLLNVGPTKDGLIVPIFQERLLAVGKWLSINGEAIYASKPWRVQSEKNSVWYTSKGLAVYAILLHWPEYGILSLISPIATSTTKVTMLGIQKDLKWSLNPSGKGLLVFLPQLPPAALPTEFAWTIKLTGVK
- protocol_details: glycosidase inhibition assay, bovine kidney α-L-fucosidase
- Format: biochemical
- condition: at 100 μM

compound: OCCC[C@H](O)CCCCCCCCC[C@@H]1N[C@@H](CO)[C@H](O)[C@H]1O
units: %
inhibition at 100 µM: 0
--
compound: OCCCC(O)CCCCCCCCCC1NC(CO)C(O)C1O (stereo not drawn) [2,10-di-epi-3]
units: %
inhibition at 100 µM: 10.8
--
compound: OCCC[C@H](O)CCCCCCCCC[C@H]1N[C@H](CO)[C@@H](O)[C@@H]1O [10’-epi-3]
units: %
inhibition at 100 µM: 0
--
compound: OCCC[C@@H](O)CCCCCCCCC[C@H]1N[C@H](CO)[C@@H](O)[C@@H]1O
units: %
inhibition at 100 µM: 0
--
compound: OCCC[C@@H](O)CCCCCCCCC[C@H]1N[C@@H](CO)[C@@H](O)[C@@H]1O [2-epi-3]
units: %
inhibition at 100 µM: 4.3
--
compound: OCCC[C@@H](O)CCCCCCCCC[C@@H]1N[C@@H](CO)[C@H](O)[C@H]1O [ent-10’-epi-3]
units: %
inhibition at 100 µM: 6.1
